Can you tell me T/C for the items I'm about to list?
Tested on: BDF1 mice, P388 leukemia ip, median survival T/C
Test Summary: NCI In Vivo Anticancer Drug Screen. Data for tumor model P388 Leukemia (intraperitoneal) in B6D2F1 (BDF1) mice
Particulars: endpoint: median survival time; dose: 12.5 mg/kg/injection; schedule: Q01DX009 (ip); vehicle: saline with Tween-80; higher = longer survival
Experimental: The antitumor activity of compounds was measured in mice bearing transplantable tumors. Survival or tumor size were measured and the results are expressed as the measurement made in the treated group (T) divided by the measurement made in the vehicle treated control group (C). The tumor model used in this assay is P388 Leukemia (intraperitoneal) in B6D2F1 (BDF1) mice
Inconclusive results and toxic doses are left out.

Kindly note the recorded T/C for CC1(C)C(=O)N(Cl)C(=O)N1Cl , which is 113 % of control

Per the record, Cc1[o+]c(C)c2c(c1C)-c1ccccc1C2=O has T/C of 113 % of control

Noted for C=CC[n+]1ccccc1C(c1ccccc1)c1ccccc1 : its T/C reads 120 % of control

So, S=C1Cc2[nH]c(=S)sc(=S)c2C(=S)N1 ? Its T/C was 99 % of control

For record COC1(c2ccc([N+](=O)[O-])o2)OC1(C)C (configuration not stated) the listed T/C is 111 % of control

The compound identified as CCN(CC)CCOc1ccc(C2=C(c3ccccc3)CCc3cc(OC)ccc32)cc1 registered its T/C at 90 % of control

compound Cc1cc2nc3c(=O)[nH]c(=O)nc-3n(CC(O)C(O)C(O)CO)c2cc1C (configuration not stated) , T/C observed: 102 % of control

T/C recorded for this compound, CC(C)CC(CC(C)C)NCC(C)OC(=O)c1ccc(N)cc1 (configuration not stated) , is 93 % of control

T/C recorded for this compound, O=C1NC(Cc2ccccc2)C(=O)NC1Cc1ccccc1 (configuration not stated) , is 101 % of control

Sure, the documented T/C for CN(C)c1ccc(N(C)C)c(C(O)(c2ccccc2)c2ccccc2)c1 is 95 % of control

Item: O=C(O)CCSc1ncnc2nc[nH]c12 | T/C: 104 % of control

Noted for CC[n+]1c(-c2ccccc2)c2cc(N)ccc2c2ccc(N)cc21 : its T/C reads 113 % of control

====

System: BDF1 mice, P388 leukemia ip, median survival T/C
Test Summary: NCI In Vivo Anticancer Drug Screen. Data for tumor model P388 Leukemia (intraperitoneal) in B6D2F1 (BDF1) mice
Particulars: endpoint: median survival time; dose: 200.0 mg/kg/injection; schedule: Q04DX003 (ip); vehicle: saline
Inconclusive results and toxic doses are left out. How the source made its calls: active means survival T/C of 150% or more; inactive means T/C below 125% in these data. Non-standard residues stand in square brackets, D forms with d. Residues, ends and D or L forms follow the SMILES beside them. ξ: configuration not given here. ξF = NC(Cc1ccccc1)C(=O)O
# output must be one of TRUE for active, FALSE for inactive

Enquiry: Test call, this molecule: CC1C=CC(C(N)C(=O)O)O1 (centres undefined)
Return: FALSE

Enquiry: Hi team, can someone confirm the assay call for O=S(=O)(O)c1ccc(Br)cc1 ?
Return: FALSE

Enquiry: Test call for this molecule, please: CC(=O)CC(C)(C)c1ccccc1
Return: FALSE

Enquiry: Please indicate how the test categorized NC(Cc1ccccc1)C(=O)NCC(=O)O (centres undefined) (H-[ξF]-Gly-OH) .
Return: FALSE

Enquiry: Recorded test call requested for Cn1cnc([N+](=O)[O-])c1Cl
Return: FALSE

Enquiry: Assay result, entry CN(C)P1(=O)OCCN1N (centres undefined) — outcome?
Return: FALSE

Enquiry: // param item: OCCN1CCNC1=S ; yields the recorded call
Return: FALSE

Enquiry: Please let me know the test result on file for CCOC(=O)c1cc(C)nnc1C(=O)OCC .
Return: FALSE

Enquiry: # outcome recorded in this test, key = OCCOCC(F)(F)F
Return: FALSE

Enquiry: What did the test return for CC(=O)Nc1ccc(C)c([N+](=O)[O-])c1 ?
Return: FALSE

Enquiry: How was CCOC(=O)N1C=Cn2c(cnc2C)C1O (centres undefined) classified in this test?
Return: FALSE

Enquiry: # fetch the recorded call for CCOC(=O)c1nc2nc(Cl)c(Cl)nc2[nH]1 here
Return: FALSE

Enquiry: Identify the outcome logged in this assay for the molecule shown: COc1cc2ccc3c(c2cc1OC)C=[N+](C)CC3
Return: FALSE

Enquiry: What call does the record list for C/C(=N\N=C(N)N)c1ccc(NC(=O)Nc2ccc(/C(C)=N/N=C(N)N)cc2)cc1 ?
Return: TRUE

====

So I've got a bunch of compounds here, and I need their T/C values.
Test system: BDF1 mice, P388 leukemia ip, median survival T/C
Test Summary: NCI In Vivo Anticancer Drug Screen. Data for tumor model P388 Leukemia (intraperitoneal) in B6D2F1 (BDF1) mice
Particulars: endpoint: median survival time; dose: 100.0 mg/kg/injection; schedule: Q04DX003 (ip); vehicle: saline with Tween-80; higher = longer survival
Toxic doses and inconclusive results are not listed.

Memo: NC(=S)N/N=C\c1ccc(/C=N/NC(N)=S)cc1 , reported T/C: 100 % of control

Value of T/C reported for the compound CC(O)(/C=C\c1ccccc1)c1ccccc1 (stereo unspecified) is 95 % of control

Measured T/C of O=C(Cl)c1ccc(N2C(=O)c3ccccc3C2=O)cc1[N+](=O)[O-] : 102 % of control

T/C reading for CC(=O)N1C(=O)N(Cl)C(=O)C1(c1ccc(Cl)cc1)c1ccc(Cl)cc1 : 113 % of control

Please fill in: T/C reported for CCCCC(=O)C1=C(O)C(Nc2ccccc2)=CC(=O)C1=Nc1ccccc1 = 98 % of control

What the record says about O=C1C(=O)c2ccccc2C([O-])=C1[n+]1ccccc1 : T/C is 95 % of control

response.value for O=C1SCCC1CO (stereo unspecified) (field: T/C) = 114 % of control

The recorded T/C for entry C[C@]12CC[C@@H]3c4ccccc4CC[C@H]3[C@@H]1CC[C@@H]2O equals 90 % of control

Entry OCCOCC(F)(F)F ; T/C = 100 % of control

The measured T/C associated with CCOC(=O)/C(C#N)=C/c1cc2c3c(c1)CCCN3CCC2 reads 90 % of control

# T/C of CC(=O)C1C(=O)C(=O)OC1C (stereo unspecified) = 113 % of control

Recorded T/C (compound COc1ccc2cc(Br)ccc2c1 ): 95 % of control

Documented T/C of CC(=O)NCc1ccc([N+](=O)[O-])cc1 : 111 % of control

Lookup result for Nc1ccc(SCc2nc3cccc4c3n2CCC4)cc1 ; measured T/C: 91 % of control

Entry O=C(O)c1ccc(-c2ccc(C(=O)O)cc2I)c(I)c1 ; T/C = 100 % of control

Record summary for O=S1(=O)CC2(N3CCOCC3)C3CCC(C3)C21 (stereo unspecified) : reported T/C = 111 % of control

T/C reported for this compound CC/C(=C(\CC)c1ccc(OC)cc1)c1ccc(O)cc1 : 109 % of control

T/C reading for CC(C)(C)c1ccc(C(=O)C2CC2)cc1 : 86 % of control

response.value for C(=NCCN=Cc1c[nH]c2ccccc12)c1c[nH]c2ccccc12 (field: T/C) = 103 % of control

Noted for CCCCCCCCCCCCNCc1ccc(O)cc1 : its T/C reads 108 % of control

Lab note: CCOCc1cccc2ccccc12 gave T/C of 109 % of control

The reported T/C of the compound CCCCCCCCSP(=S)(N1CC1)N1CC1 was 88 % of control

Reported T/C ( C[N+](C)(Cn1nc(Cl)c2cc([N+](=O)[O-])ccc21)Cn1nc(Cl)c2cc([N+](=O)[O-])ccc21 ) = 115 % of control

Input CC(=O)Nc1ccc(/C=C/C(=O)c2ccc(Cl)cc2)cc1 . Output T/C: 104 % of control

Reported T/C ( Cc1ccc(S(=O)(=O)Cl)c(Cl)c1 ) = 113 % of control

Entry CN1CCN(C2CCCCc3ccccc32)CC1 (stereo unspecified) ; T/C = 109 % of control

====

System: BDF1 mice, P388 leukemia ip, median survival T/C
Test Summary: NCI In Vivo Anticancer Drug Screen. Data for tumor model P388 Leukemia (intraperitoneal) in B6D2F1 (BDF1) mice
Particulars: endpoint: median survival time; dose: 200.0 mg/kg/injection; schedule: Q04DX003 (ip); vehicle: saline with Tween-80
Toxic doses and inconclusive results are not listed. The calls were made as follows: active = survival T/C of 150% or more; inactive = T/C below 125% in these data.
Please answer using one outcome listed in Yes = active, No = inactive

Enquiry: I'd appreciate the recorded outcome for C[N+](C)(Cn1nc(Cl)c2cc([N+](=O)[O-])ccc21)Cn1nc(Cl)c2cc([N+](=O)[O-])ccc21 from this test.
Return: Yes

Enquiry: Hey, what did the test say about CCCCCCC(CCCCCC)(CCCCCC)B1OCCO1 ?
Return: No

Enquiry: Query: recorded result category for c1cc2c3c(c1)/C(=N\N=C1/CCN4CCCc5cccc1c54)CCN3CCC2 in this test
Return: No

Enquiry: Dear all, I need the recorded test outcome for [Cl][Pd][Cl].[NH-]CC[NH-] , thank you.
Return: No

Enquiry: GET /call?item= Cc1ccc(C(=O)NCCCOc2ccc(N)cc2Cl)cc1S(=O)(=O)F returns the recorded outcome of this test.
Return: No

Enquiry: // return assay outcome for COc1cc(C(Cc2ccnc3ccccc23)Cc2ccnc3ccccc23)ccc1N(C)C
Return: No

Enquiry: # outcome recorded in this test, key = CN1c2ccc3ccccc3c2Sc2ccc3ccccc3c21
Return: No

Enquiry: Could you please tell me the result logged for CSc1ncnc2c1ncn2CCCl in this assay?
Return: No

Enquiry: For this compound, state the assay outcome: COc1ccc(OC)c(C(=O)CC(O)(C(F)(F)F)C(F)(F)F)c1
Return: No

Enquiry: # fetch the recorded call for O=c1cc(Cl)c2ccccc2[nH]1 here
Return: No

Enquiry: Any idea what this test logged for COC(=O)CCCCCC(O)C1CCC2OC(=O)CC21C (configuration not stated) ?
Return: No

Enquiry: Please indicate how the test categorized CCOC(=O)CCC(C(=O)OCC)C(=O)OCC .
Return: No
